assay: yeast display, Sf9 membrane polyspecificity reagent, FACS + sequencing; frameworks hold sequencing errors
observed_property: polyreactivity (PSR sort gate)

Some solved cases for reference:
QVQLVESGGGLVQAGGSLRLSCAASGYTLRPNGMGWYRQAPGKERELVAAISSGGSTYYADSVKGRFTISRDNAKNTVYLQMISLKPEDTAVYYCAAEYWYDYWGQGTQVTVSS : low polyreactivity
QDQLVESGGGLVQAGGSLRLSCAASGSIFVNNAMGWYRQAPGKERELVAAISRSGGNTYYADSVKGRFTISRDNAKNTVYLQMNSLKPEDTAVYYCAADFRGRYGYWGQGTQVTVSS : high polyreactivity
QVQLVESGGGLVQAGGSLRLSCAASGSILTHYAMGWYRQAPGKERELVAGIPWSGTSTYYADSVKGRFTISRDNAKNTVYLQMNSLKPEDTAVYYCNARHYGWGFAWKYDYWGQGTQVTVSS : low polyreactivity
QVQLVESGGGLFQAGGSLRLSCAASGTTLVRYAMGWYRQAPGIERELVASISYSGGSTHYADSVKGRFTISRDNAKNTVYLQMNSLKPEDTAVDYWAARPYYSWGGHYYWGQGTQVTVSS : high polyreactivity

Please give the measured polyreactivity (PSR sort gate) for this sequence: `QVQLVESGGGLVQAGGSLRLSCAASGSTFKEYTMGWYRQAPAKERELVAASSKSGDSTYYADSVKGRFTISRDNAKNTVYLQMNSLKPEDTAVYYCNKPTWYTIYDYWGQGTQVTVSS` low polyreactivity
